- Test system: SNB-19 CNS
- Protocol Summary: NCI tumour cell line growth inhibition, 48 h
Observation Type: TGI

# Compound, TGI
rows = [
    ("O=C(C(Br)Br)C(Br)C(Br)c1ccccc1 (configuration not stated)", "35.2 µM"),
    ("COc1cccc(-c2nc3c(C(=O)NCCN(C)C)cccc3[nH]2)c1", "> 100 µM"),
    ("CCCNC(=S)/N=C\\c1c(O)c2ccccc2oc1=O", "> 100 µM"),
    ("OCCCCC#Cc1ccccc1C#Cc1ccccc1C(F)(F)F", "34.3 µM"),
    ("O=C1OC(=O)C2C1C1(c3ccccc3)C(c3ccccc3)=C(c3ccccc3)C2(c2ccccc2)S1=O (configuration not stated)", "> 100 µM"),
    ("Cc1c2cc[nH]c(=O)c2cc2c(=O)c3cnccc3[nH]c12", "> 100 µM"),
]

QUERY: For the compound CC(C)/C=N\n1c(N)c(C#N)c(C#N)c1C(C)C , report TGI.
RESULT: > 100 µM

QUERY: For the compound Cc1cc2c(s1)C(=O)c1sccc1C2=O , report TGI.
RESULT: 3.04 µM

QUERY: For the compound O=C(/C=C/c1ccc(O)cc1)NCCc1ccc(O)cc1 , report TGI.
RESULT: > 12.5 µM

QUERY: For the compound O=C(O)c1cc2c(cn1)[nH]c1ccccc12 , report TGI.
RESULT: > 100 µM

QUERY: For the compound CCCCCc1c2nc(c(CCCCC)c3ccc([nH]3)c(CCCCC)c3ccc([nH]3)c(CCCCC)c3nc1C=C3)C=C2 , report TGI.
RESULT: > 100 µM

QUERY: For the compound C[C@]12CCC(=O)C(O)=C1CC[C@@H]1[C@@H]2CC[C@]2(C)C(=O)CC[C@@H]12 , report TGI.
RESULT: > 100 µM

QUERY: For the compound Cc1cc(S(=O)(=O)Nc2nnc(-c3ccccc3)c(-c3ccccc3)n2)c(SCc2ccccc2)cc1Cl , report TGI.
RESULT: 52.7 µM

QUERY: For the compound COc1ccc(C2C(Cl)C(=O)N2NC(=O)Cc2ccccc2)cc1 (configuration not stated) , report TGI.
RESULT: > 100 µM

QUERY: For the compound O=C1CCCC2=C1CC1=C(CCCC1=O)N2c1cccc2ccccc12 , report TGI.
RESULT: > 100 µM

QUERY: For the compound COc1nc(C)cc2c(=O)n(-c3ccccc3)n(CCCN3CCN(c4ccc(Cl)cc4)CC3)c(=O)c12 , report TGI.
RESULT: > 50 µM

QUERY: For the compound Cc1ccc2c(N)c(C(=O)N[C@H]3CCc4cc(N5CC6CCC(C5)N6)ccc4C3)sc2n1 , report TGI.
RESULT: 2.49 µM

---

Consider the following compounds and their measured TGI readings.
- Test system: EKVX NSCLC
- Protocol Summary: NCI tumour cell line growth inhibition, 48 h

# Compound, Target Of Assay, TGI
measured = [
    ("Cc1c2cc[nH]c(=O)c2cc2c(=O)c3cnccc3[nH]c12", "EKVX NSCLC", "> 100 µM"),
    ("CC(O)C(O)C(N)CC=O (stereo unspecified)", "EKVX NSCLC", "> 500 µM"),
    ("CC(=O)OC(C)(C)/C=C/C(=O)[C@](C)(O)[C@H]1[C@H](O)C[C@@]2(C)[C@@H]3CC=C4[C@@H](C[C@H](O)C(=O)C4(C)C)[C@]3(C)C(=O)C[C@]12C", "EKVX NSCLC", "< 0.0221 µM"),
    ("COc1ccc(-c2cn[nH]c2-c2cc(OC)c(OC)c(OC)c2)cc1N", "EKVX NSCLC", "> 100 µM"),
    ("O=S(=O)(c1ccc(I)cc1)N(c1ccccc1)S(=O)(=O)C(F)(F)C(F)(F)C(F)(F)C(F)(F)F", "EKVX NSCLC", "> 100 µM"),
]

QUERY: For the compound CC1=NN(C(=O)Cc2ccccc2)C(=O)/C1=C\C=C\c1ccccc1 , report TGI.
RESULT: > 100 µM

---

Consider the following molecules and their measured TGI readings.
- System: OVCAR-3 ovarian
- Protocol Summary: NCI tumour cell line growth inhibition, 48 h
Please respond with the number in µM and leave the unit unwritten.

# Molecule, Unit Name, TGI
measured = [
    ("O=[N+]([O-])C(=C(N1CCOCC1)N1CCOCC1)/C(Cl)=C(\\Cl)[N+](=O)[O-]", "µM", 13.5),
    ("Cc1cc2c(s1)C(=O)c1sccc1C2=O", "µM", 2.19),
    ("N#CS/C(Cl)=C(/C(Cl)=C(Cl)Cl)[N+](=O)[O-]", "µM", 48.9),
    ("CCSc1nc(N=Cc2cccs2)c2cn[nH]c2n1", "µM", 53.9),
    ("CC(=O)Nc1ccc2c(C)c3c4ccccc4n(C)c3nc2n1", "µM", 70.1),
]

Next molecule, please.
QUERY: Please tell me the measured TGI for CCCCCCCCCCCCCCCCP(=O)(O)OP(=O)(O)OCC1OC(n2cnc3c(N)ncnc32)C(O)C1O (stereo not drawn) ; system: OVCAR-3 ovarian.
RESULT: 88.1

---

- Test system: NCI-H460 lung
Observation Type: GI50

A selection of reference data follows.
# Compound, GI50
data = [
    ("O=C1OC(=O)C2C1C1(c3ccccc3)C(c3ccccc3)=C(c3ccccc3)C2(c2ccccc2)S1=O (stereo not given)", "> 100 µM"),
    ("Cc1ccc2c(=O)c3cccc(CC(=O)O)c3oc2c1C", "> 100 µM"),
    ("CC(NNC(=S)N1CCCCCC1)c1ccc2ccccc2n1 (stereo not given)", "1.05 µM"),
    ("C[N+](C)(CCCCCC[N+](C)(C)CCCN1C(=O)c2cc3ccccc3cc2C1=O)CCCN1C(=O)c2ccccc2C1=O", "> 37.5 µM"),
]

Next compound, please.
QUERY: For the compound O=C1c2ccccc2-c2c1c1ccccc1c(=O)n2CCCN1CCOCC1 , report GI50.
RESULT: 20 µM

---

- Tested on: ACHN renal
- Protocol Summary: NCI tumour cell line growth inhibition, 48 h
Consider the following compounds and their measured TGI readings.

# Compound, Test Result
rows = [
    ("N.N.NC(CS)C(=O)[O-].NC(CS)C(=O)[O-].[Pt+4] (centres undefined)", "> 50 µM"),
    ("COc1cccc(-c2cc(=O)c3cc(N)ccc3[nH]2)c1", "> 100 µM"),
    ("Fc1ccc(-c2ccc(-c3nnc(-c4cc(F)c(Cl)cc4Cl)o3)o2)cc1Cl", "> 100 µM"),
]

QUERY: For the compound COc1cc(/C=C/C(=O)c2ccc(Cl)cc2)ccc1OS(=O)(=O)c1ccc(C)cc1 , report TGI.
RESULT: 22.2 µM

---

- Tested on: RPMI-8226 leukemia
- Protocol Summary: NCI tumour cell line growth inhibition, 48 h; in the data active = GI50 below about 0.43 µM; inactive = the rest
Pick one and only one: active, inactive

As a guide, the following entries are already answered.
# Compound, Target Of Assay, Assigned Class
data = [
    ("COC(=O)/C(=C\\c1c(C)[nH]c2ccccc12)S(=O)(=O)c1ccccc1", "RPMI-8226 leukemia", "inactive"),
    ("OCCCCC#Cc1ccccc1C#Cc1ccccc1C(F)(F)F", "RPMI-8226 leukemia", "inactive"),
]

QUERY: // outcome(item) with item = COc1ccc(/C=C\c2cc(OC)c(OC)c(OC)c2)cc1OCC(=O)Nc1nc2ccc(C(F)(F)F)cc2s1
RESULT: inactive

QUERY: // outcome(item) with item = C[C@H]1CCC/C=C/[C@@H]2C[C@H](O)C[C@H]2[C@H](O)[C@@H](S(=O)CCN(C)C)CC(=O)O1 (stereo partly drawn)
RESULT: active

---

- System: SF-268 CNS
- Protocol Summary: NCI tumour cell line growth inhibition, 48 h
Consider the following compounds and their measured TGI readings.

A selection of reference data follows.
# Compound, Target Of Assay, TGI
rows = [
    ("CC(c1cccc2ccccc12)/[N+]([O-])=C/c1ccccc1 (stereo unspecified)", "SF-268 CNS", "> 100 µM"),
    ("CCCCc1c2c(nc3c1CCC/C3=C\\c1ccccc1)C(=O)C(CN(C)C)CC2 (stereo unspecified)", "SF-268 CNS", "35.6 µM"),
    ("COC(=O)C1=CC[C@@H]2C(C(=O)O)=CO[C@@H](OC3OC(CO)C(O)C(O)C3O)[C@H]12 (stereo partly specified)", "SF-268 CNS", "> 300 µM"),
    ("O=C(NC(=S)Nc1ccc(Cl)cc1)c1ccccc1", "SF-268 CNS", "> 100 µM"),
]

QUERY: For the compound C=C1C(=O)OC2C1C(OC(=O)/C(C)=C/C)CC1(C)C(=O)CCC(=C)C21 (stereo unspecified) , report TGI.
RESULT: 33.4 µM

QUERY: For the compound CCOC(=O)c1c(NC(=O)Nc2ccccc2)c(C(N)=O)c2n1CCCCC2 , report TGI.
RESULT: > 100 µM

QUERY: For the compound CC1(O)/C(=N/O)CC2CC1C2(C)C (stereo unspecified) , report TGI.
RESULT: > 100 µM

QUERY: For the compound CCCCCCCCCCCCCCCCP(=O)(O)OP(=O)(O)OCC1OC(n2cnc3c(N)ncnc32)C(O)C1O (stereo unspecified) , report TGI.
RESULT: 95.2 µM

QUERY: For the compound c1ccc2sc(C3(N4CCCCC4)CCCC3)cc2c1 , report TGI.
RESULT: 24.3 µM

QUERY: For the compound COc1ccc(/C=C2/C[N+](C)(C)C/C(=C/c3ccc(OC)cc3)C2=O)cc1 , report TGI.
RESULT: > 94.4 µM

QUERY: For the compound CN(c1ccccc1)C(c1ccccc1)C(O)c1ccccc1 (stereo unspecified) , report TGI.
RESULT: 42.1 µM

QUERY: For the compound COc1ccc(-c2cn[nH]c2-c2cc(OC)c(OC)c(OC)c2)cc1N , report TGI.
RESULT: > 100 µM

QUERY: For the compound CC(=O)OC1COC(n2c(N)c(C#N)c(C)c(C#N)c2=S)C(OC(C)=O)C1OC(C)=O (stereo unspecified) , report TGI.
RESULT: > 100 µM

QUERY: For the compound O=S1(=O)C[C@@H](O)[C@H](O)CS1 , report TGI.
RESULT: > 100 µM

QUERY: For the compound N#CC12C3C4CC5C6C4C1C6C(O)(C53)N2Cc1ccccc1 (stereo unspecified) , report TGI.
RESULT: > 100 µM

QUERY: For the compound CCCCCc1c2nc(c(CCCCC)c3ccc([nH]3)c(CCCCC)c3ccc([nH]3)c(CCCCC)c3nc1C=C3)C=C2 , report TGI.
RESULT: > 100 µM

QUERY: For the compound N#CS/C(Cl)=C(/C(Cl)=C(Cl)Cl)[N+](=O)[O-] , report TGI.
RESULT: > 100 µM

QUERY: For the compound [N-]=[N+]=Nc1ccc2c(c1)Sc1ccccc1N2CCCCCl , report TGI.
RESULT: > 100 µM

QUERY: For the compound Cc1cc2oc(=O)[nH]c(=S)c2c(C)c1C , report TGI.
RESULT: > 100 µM

QUERY: For the compound CC1=C(OC2OC(CO)C(O)C(O)C2O)C(=O)C[C@H]2C1=CC[C@@H]1[C@@]2(C)C(=O)C[C@]2(C)[C@@H]([C@@](C)(O)C(=O)CCC(C)(C)O)[C@H](O)C[C@@]12C (stereo partly specified) , report TGI.
RESULT: > 100 µM

QUERY: For the compound c1ccc(N=C2c3ccccc3C3=NCCCN32)cc1 , report TGI.
RESULT: > 100 µM
